- TEST SYSTEM: full length human SIRPα v1 with a small beta-gal fragment (ED) fused to its C-terminal, expressed in K562 … (human, UniProt P78324 31-504)
- Sequence (P78324 31-504): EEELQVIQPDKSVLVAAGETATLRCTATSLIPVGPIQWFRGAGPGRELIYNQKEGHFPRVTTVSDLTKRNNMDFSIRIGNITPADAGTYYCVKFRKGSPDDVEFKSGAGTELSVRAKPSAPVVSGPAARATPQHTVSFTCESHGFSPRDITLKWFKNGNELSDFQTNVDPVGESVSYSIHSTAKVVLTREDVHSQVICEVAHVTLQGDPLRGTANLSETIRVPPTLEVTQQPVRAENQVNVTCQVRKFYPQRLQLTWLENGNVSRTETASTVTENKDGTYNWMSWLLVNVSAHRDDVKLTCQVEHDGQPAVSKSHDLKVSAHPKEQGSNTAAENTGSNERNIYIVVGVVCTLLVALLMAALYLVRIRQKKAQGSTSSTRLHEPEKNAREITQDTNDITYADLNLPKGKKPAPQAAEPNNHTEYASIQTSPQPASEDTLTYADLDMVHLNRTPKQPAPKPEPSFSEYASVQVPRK
- ASSAY METHOD TEXT: cell-based or functional assay
READOUT LABEL: SHP-1 recruitment blocking, IC50 (nM)
# value in nM; strip the unit string

{"columns": ["BINDER", "UNIT OF MEASURE", "SHP-1 recruitment blocking, IC50"],
 "data": [
  ["005c (antibody, V domains shown, also called chimeric antibody 005c) VH: EVKLVESGGGLVQPGGSLSLSCAASGFTFTDYYMSWVRQPPGKALEWLGFIKNEANGYTTESSASVKGRFTISRDNSQSILYLQMNALRAEDSATYYCARYDYYGSNYNWYFDAWGTGTTVTVSS VL: DIVMTQSQKFMSPSVGDRVSITCKASQNVRTAVAWYQQKPGQSPKVLIHLASKRHTGVPDRFTGSGSGTDFTLTISNVQSEDLADYFCLQHWIHPLTFGAGTKLELK", "nM", 3.85]
]}

The recorded SHP-1 recruitment blocking, IC50 for entry 015c (antibody, V domains shown, also called chimeric antibody 015c) VH: EVQLQQSGVEVVQPGASVKLSCTASGFNIEAYYMHWVKQRTEQGLEWIGRIDPEDGESKYAPKFQGKATMTADTSSSTAYLQLSSLTSDDTAVYYCVRGSYEYWGQGTTLTVSS VL: QIVLTQSPAIMSASPGEKVTLTCSASSSVSSSYLYWYQQKPGSSPKLWIYSTSNLASGVPPRFSGSGSGTSYSLTISSMQAEDAASYFCYQWSSYPYTFGGGTKLEIK equals 0.09

The recorded SHP-1 recruitment blocking, IC50 for entry hu1H9G4 (antibody, V domains shown) VH: QVQLVQSGAEVKKPGASVKVSCKASGYTFTSYWITWVKQAPGQGLEWIGDIYPGSGSTNHIEKFKSKATLTVDTSISTAYMELSRLRSDDTAVYYCATGYGSSYGYFDYWGQGTLVTVSS VL: DIQMTQSPSSLSASVGDRVTITCRASENIYSYLAWYQQKPGKAPKLLIYTAKTLAEGVPSRFSGSGSGTDFTLTISSLQPEDFATYYCQHQYGPPFTFGQGTKLELK equals 0.1
